- assayedTarget: T1, Recombinant Human DLL4 (delta-like protein 4) (human, UniProt Q9NR61 27-524)
- T1 construct: Bought recombinant human DLL4 (R&D Systems Cat#1506-D4/CF); also called rHuman DLL4; Delta-like ligand 4
- testDescription: SPR, Fab on recombinant human DLL4
In this section, each of the binders is paired with its reported koff.
All answers are understood in s⁻¹, so give the number only.

Known results for binders:
binder	units	koff
Fab VH1-46_IGHD6-6*01_IGHJ1*01 S102A/S103P/S104F/H111F I51V/N52L/S54T/G56H (APFF VLTH) & L6_IGKJ1*01 S28N/S30D/S31H S52L/A55S (NDH LS) (Fab, V domains shown, Fab with CH1 (Plasmid A, His6 and Flag tags) and kappa CL (Plasmid C); also called H:APFF VLTH & L:NDH LS) VH: QVQLVQSGAEVKKPGASVKVSCKASGYTFTSYYMHWVRQAPGQGLEWMGIVLPTGHSTSYAQKFQGRVTMTRDTSTSTVYMELSSLRSEDTAVYYCAREEYAPFSAEYFQFWGQGTLVTVSS VL: EIVLTQSPATLSLSPGERATLSCRASQNVDHYLAWYQQKPGQAPRLLIYDALNRSTGIPARFSGSGSGTDFTLTISSLEPEDFAVYYCQQRSNWPPWTFGQGTKVEIKR	s⁻¹	0.00109
Fab VH1-46_IGHD6-6*01_IGHJ1*01 S102A/S103P/S104F/H111F (APFF) & L6_IGKJ1*01 S28N/S30D/S31H (NDH) (Fab, V domains shown, Fab with CH1 (Plasmid A, His6 and Flag tags) and kappa CL (Plasmid C); Some paragraphs print S28D/S30N/S31H for the same NDH chain; also called H:APFF & L:NDH; APFF-NDH) VH: QVQLVQSGAEVKKPGASVKVSCKASGYTFTSYYMHWVRQAPGQGLEWMGIINPSGGSTSYAQKFQGRVTMTRDTSTSTVYMELSSLRSEDTAVYYCAREEYAPFSAEYFQFWGQGTLVTVSS VL: EIVLTQSPATLSLSPGERATLSCRASQNVDHYLAWYQQKPGQAPRLLIYDASNRATGIPARFSGSGSGTDFTLTISSLEPEDFAVYYCQQRSNWPPWTFGQGTKVEIKR	s⁻¹	0.0689
Fab VH1-46_IGHD6-6*01_IGHJ1*01 S102A/S103P/S104F/H111F I51V/N52L/S54T/G56H (APFF VLTH) & L6_IGKJ1*01 S28N/S30D/S31H (NDH) (Fab, V domains shown, Fab with CH1 (Plasmid A, His6 and Flag tags) and kappa CL (Plasmid C); also called H:APFF VLTH & L:NDH) VH: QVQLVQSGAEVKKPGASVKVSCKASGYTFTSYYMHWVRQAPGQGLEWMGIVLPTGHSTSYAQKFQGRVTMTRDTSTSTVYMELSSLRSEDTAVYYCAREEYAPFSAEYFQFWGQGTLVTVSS VL: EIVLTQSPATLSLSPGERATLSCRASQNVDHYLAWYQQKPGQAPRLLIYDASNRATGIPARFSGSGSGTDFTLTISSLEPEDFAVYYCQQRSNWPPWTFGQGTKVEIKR	s⁻¹	0.00113

Then this binder:
Ask: What value of koff has been recorded for this entry: Fab VH1-46_IGHD6-6*01_IGHJ1*01 S102A/S103P/S104F (APF) & L6_IGKJ1*01 S31K (Fab, V domains shown, Fab with CH1 (Plasmid A, His6 and Flag tags) and kappa CL (Plasmid C)) VH: QVQLVQSGAEVKKPGASVKVSCKASGYTFTSYYMHWVRQAPGQGLEWMGIINPSGGSTSYAQKFQGRVTMTRDTSTSTVYMELSSLRSEDTAVYYCAREEYAPFSAEYFQHWGQGTLVTVSS VL: EIVLTQSPATLSLSPGERATLSCRASQSVSKYLAWYQQKPGQAPRLLIYDASNRATGIPARFSGSGSGTDFTLTISSLEPEDFAVYYCQQRSNWPPWTFGQGTKVEIKR
Result: 0.0392
